Data origin: patent US20240247080A1

# Test Target: T1, human GIP receptor (human, UniProt P48546 22-466)
# T1 sequence (looked up): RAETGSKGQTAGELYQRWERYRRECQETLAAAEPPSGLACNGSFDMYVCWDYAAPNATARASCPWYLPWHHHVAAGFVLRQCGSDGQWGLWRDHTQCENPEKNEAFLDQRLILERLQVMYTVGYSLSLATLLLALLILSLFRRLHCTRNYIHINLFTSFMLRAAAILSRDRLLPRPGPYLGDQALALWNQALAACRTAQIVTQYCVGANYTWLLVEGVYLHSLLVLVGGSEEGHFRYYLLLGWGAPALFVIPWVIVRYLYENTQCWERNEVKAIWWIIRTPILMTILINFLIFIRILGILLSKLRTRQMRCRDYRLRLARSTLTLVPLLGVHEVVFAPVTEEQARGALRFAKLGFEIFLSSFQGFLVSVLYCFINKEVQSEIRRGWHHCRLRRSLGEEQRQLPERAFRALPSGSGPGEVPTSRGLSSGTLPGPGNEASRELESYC
# Assay Comment: cell-based or functional assay
Starred links: 1 amine or outer side, 2 acyl side, 3 side chain; linkers in the order of their positions; H or OH if unused. Non-standard residues stand in square brackets, D forms with d. Groups on a side chain read outwards from the residue. No end group written: not given here. *: point of attachment. C20 diacid = O=C(O)CCCCCCCCCCCCCCCCCCC(=O)*; C18 diacid = O=C(O)CCCCCCCCCCCCCCCCC(=O)*; γGlu = O=C(O)[C@H](CCC(=O)[*:2])N[*:1]; εLys = N[C@@H](CCCCN[*:1])C(=O)[*:2]; AEEA = NCCOCCOCC(=O)O; Aib = CC(C)(N)C(=O)O; OEG = OEG spacer
Label rule met when EC50 hGIPR 100% hP (CreLuc) is strictly below 1 nM; otherwise label rule not met.

Q: # strict comparison: is reported EC50 hGIPR 100% hP (CreLuc) < 1 nM? input = Y[Aib]EGTFTSDYSI[Aib]LEKQAQ[Aib]EFVEWLIK([AEEA-AEEA-γGlu-γGlu-γGlu-C20 diacid])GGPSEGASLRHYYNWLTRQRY-NH2 (also: TFA salt) [Compound 273]
A: rule not met

Q: # strict comparison: is reported EC50 hGIPR 100% hP (CreLuc) < 1 nM? input = Y[Aib]EGTFTSDYSI[Aib]LEKQAQ[Aib]AFVEWLIKGGPSEGASLRHYYNWLTRQRY-NH2 (not fully specified (residue 28); also: TFA salt) [Compound 296]
A: rule not met

Q: # strict comparison: is reported EC50 hGIPR 100% hP (CreLuc) < 1 nM? input = Y[Aib]EGTFTSDYSI[Aib]LEKQAE[Aib]AFVEWLIK([γGlu-γGlu-γGlu-γGlu-C18 diacid])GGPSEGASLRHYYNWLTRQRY-NH2 (also: TFA salt) [Compound 262]
A: rule met

Q: # strict comparison: is reported EC50 hGIPR 100% hP (CreLuc) < 1 nM? input = Y[Aib]EGTFTSDYSI[Aib]LEKQAQ[Aib]AFVQWLIK([AEEA-AEEA-γGlu-γGlu-γGlu-γGlu-C18 diacid])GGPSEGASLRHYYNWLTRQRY-NH2 (also: TFA salt) [Compound 270]
A: rule met

Q: # strict comparison: is reported EC50 hGIPR 100% hP (CreLuc) < 1 nM? input = Y[Aib]EGTFTSDYSI[Aib]LEKQAQ[Aib]AFVEWLIK([OEG-OEG-Glu-Glu-Glu-C18 diacid])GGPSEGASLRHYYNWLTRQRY-NH2 (also: TFA salt) [Compound 298]
A: rule not met

Q: # strict comparison: is reported EC50 hGIPR 100% hP (CreLuc) < 1 nM? input = Y[Aib]EGTFTSDYSI[Aib]LEKQAQ[Aib]EFVEWLIK([γGlu-γGlu-γGlu-γGlu-C20 diacid])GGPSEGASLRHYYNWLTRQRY-NH2 (also: TFA salt) [Compound 271]
A: rule not met

Q: # strict comparison: is reported EC50 hGIPR 100% hP (CreLuc) < 1 nM? input = Y[Aib]EGTFTSDYSI[Aib]LEKQAQ[Aib]AFVEWLIK([εLys-γGlu-γGlu-γGlu-γGlu-γGlu-γGlu-γGlu-C20 diacid])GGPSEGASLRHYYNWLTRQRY-NH2 (also: TFA salt) [Compound 288]
A: rule not met
